- EXPERIMENTAL TARGET: hERG potassium channel (Homo sapiens, UniProt Q12809)
- Sequence (Q12809 whole entry): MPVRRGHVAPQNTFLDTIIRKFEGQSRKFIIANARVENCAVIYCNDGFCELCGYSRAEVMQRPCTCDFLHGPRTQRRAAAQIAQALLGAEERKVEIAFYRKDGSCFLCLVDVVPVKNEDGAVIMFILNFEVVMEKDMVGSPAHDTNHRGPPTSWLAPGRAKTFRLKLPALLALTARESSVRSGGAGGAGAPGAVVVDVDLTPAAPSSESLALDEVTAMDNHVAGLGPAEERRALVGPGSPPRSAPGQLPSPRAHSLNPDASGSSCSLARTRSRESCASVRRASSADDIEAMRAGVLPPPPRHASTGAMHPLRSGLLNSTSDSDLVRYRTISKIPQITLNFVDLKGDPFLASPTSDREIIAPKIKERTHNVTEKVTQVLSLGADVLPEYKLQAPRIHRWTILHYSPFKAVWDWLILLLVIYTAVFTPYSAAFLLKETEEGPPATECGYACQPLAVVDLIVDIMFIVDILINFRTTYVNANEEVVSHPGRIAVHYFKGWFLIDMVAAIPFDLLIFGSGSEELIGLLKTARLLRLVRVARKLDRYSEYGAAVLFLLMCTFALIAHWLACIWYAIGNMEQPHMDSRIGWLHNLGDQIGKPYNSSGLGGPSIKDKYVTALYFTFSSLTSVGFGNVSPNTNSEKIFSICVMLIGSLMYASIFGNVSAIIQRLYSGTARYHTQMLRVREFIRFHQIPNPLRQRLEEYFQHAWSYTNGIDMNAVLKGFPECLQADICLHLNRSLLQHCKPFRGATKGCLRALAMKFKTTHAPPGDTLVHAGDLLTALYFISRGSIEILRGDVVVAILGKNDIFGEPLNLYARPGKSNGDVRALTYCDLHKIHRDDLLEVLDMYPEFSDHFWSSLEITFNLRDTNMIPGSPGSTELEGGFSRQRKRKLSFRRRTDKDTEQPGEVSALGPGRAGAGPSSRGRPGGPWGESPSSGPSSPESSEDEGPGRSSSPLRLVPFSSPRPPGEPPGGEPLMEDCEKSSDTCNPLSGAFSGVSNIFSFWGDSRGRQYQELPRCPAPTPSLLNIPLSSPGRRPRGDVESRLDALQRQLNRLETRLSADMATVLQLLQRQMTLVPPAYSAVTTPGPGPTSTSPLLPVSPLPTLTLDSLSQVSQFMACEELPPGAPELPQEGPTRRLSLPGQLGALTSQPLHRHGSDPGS
- ASSAY NOTES: hERG inhibition
- Format: cell-based
- CONDITION: human; at 10 μM
OBSERVED PROPERTY: inhibition at 10 µM (%)
Answers are plain numbers, in %.

Recorded result, CN1C(=O)N(c2cccc(C(F)(F)F)c2)C2=C(C(=O)CCC2)[C@H]1c1ccc(C#N)cc1[S+](C)[O-] (single isomer, unassigned) , inhibition at 10 µM: 9

----------
- EXPERIMENTAL TARGET: Human neutrophil elastase (Homo sapiens)
- ASSAY NOTES: Human Neutrophil Elastase Assay
- CONDITION: substrate MeOSuc-Ala-Ala-Pro-Val-AMC 250 μM, pH 7.5, room temperature
Hi there, I'd appreciate the recorded IC50 for every entry that follows.
Numbers only, in nM.

Answered examples (3):
{"MOLECULE": "C[S+]([O-])c1cc(C#N)ccc1C1NC(=O)N(c2cccc(C(F)(F)F)c2)C2=C1C(=O)CCC2 (single isomer, unassigned) [Example 1.1]", "NUMBER": 2}
{"MOLECULE": "CS(=O)(=O)c1cc(C#N)ccc1C1C2=C(CCCC2=O)N(c2cccc(C(F)(F)F)c2)C(=O)N1CC1COC1 (single isomer, unassigned) [Example 5B]", "NUMBER": 157}
{"MOLECULE": "C[S+]([O-])c1cc(C#N)ccc1C1NC(=O)N(c2cccc(C(F)(F)F)c2)C2=C1C(=O)CCC2 (single isomer, unassigned) [Example 1.1B]", "NUMBER": 7.4}

From here, focus on the item given below.
Recorded result, CN1C(=O)N(c2cccc(C(F)(F)F)c2)C2=C(C(=O)CCC2)C1c1ccc(C#N)cc1[S+](C)[O-] (single isomer, unassigned) [Example 2.2] , IC50: 1.2

----------
- ASSAY NOTES: Metabolic stability with human liver microsomes
- Format: in vitro ADME
- CONDITION: pooled human liver microsomes, pH 7.6; human liver microsomes 1 mg/ml, 1 μM compound, 37° C., NADPH; read-out: t1/2 INVITRO
OBSERVED PROPERTY: half-life at 1 μM (h)
Numbers only, in h.

Value sought for every listed compound: half-life at 1 μM.
1. CN1C(=O)N(c2cccc(C(F)(F)F)c2)C2=C(C(=O)CCC2)C1c1ccc(C#N)cc1S(=O)(=O)CCCO (stereo not drawn)
2. CN1C(=O)N(c2cccc(C(F)(F)F)c2)C2=C(C(=O)CCC2)C1c1ccc(C#N)cc1S(=O)(=O)CCO (stereo not drawn)
3. CN1C(=O)N(c2cccc(C(F)(F)F)c2)C2=C(C(=O)CCC2)C1c1ccc(C#N)cc1[S+](C)[O-] (single isomer, unassigned)
4. CS(=O)(=O)c1cc(C#N)ccc1C1C2=C(CCCC2=O)N(c2cccc(C(F)(F)F)c2)C(=O)N1CC1COC1 (single isomer, unassigned)

Key:
1: 1.67; 2: 2.17; 3: 0.967; 4: 1.23

----------
- ASSAY NOTES: Aqueous solubility
- Type: physicochemical
- CONDITION: McIlvaine buffer pH 6.8 containing 2.5% DMSO, kinetic from dmso stock, McIlvaine buffer pH 6.8, 2.5% DMSO, 24 h shaking
- Method: Assay for Determination of Aqueous Solubility Starting from a 10 min DMSO stock solution, aliquots are diluted with acetonitrile/water (1/1) and McIlvaine buffer pH 6.8, respectively. After 24 h of shaking, the solutions or suspensions are filtered and analyzed by LC-UV. The amount dissolved in buffer is compared to the amount dissolved in the acetonitrile/water (1/1) solution. Solubility is measured from 0.001 to 0.125 mg/ml at a DMSO concentration of 2.5%. […]
OBSERVED PROPERTY: solubility at 24 h (µg/mL)
Give bare numbers, in µg/mL.

Value sought for every listed compound: solubility at 24 h.
1. CN1C(=O)N(c2cccc(C(F)(F)F)c2)C2=C(C(=O)CCC2)C1c1ccc(C#N)cc1[S+](C)[O-] (single isomer, unassigned)
2. CS(=O)(=O)c1cc(C#N)ccc1C1C2=C(CCCC2=O)N(c2cccc(C(F)(F)F)c2)C(=O)N1CCO (stereo not shown)
3. CN1C(=O)N(c2cccc(C(F)(F)F)c2)C2=C(C(=O)CCC2)C1c1ccc(C#N)cc1S(=O)(=O)CCO (stereo not shown)
4. CN1C(=O)N(c2cccc(C(F)(F)F)c2)C2=C(C(=O)CCC2)[C@H]1c1ccc(C#N)cc1[S+](C)[O-] (single isomer, unassigned)

Key:
1: 65; 2: 72; 3: 62; 4: 55

----------
- EXPERIMENTAL TARGET: Human neutrophil elastase (Homo sapiens, UniProt P08246)
- Construct: purchased Calbiochem 324681
- Sequence (P08246 30-247 limits assumed): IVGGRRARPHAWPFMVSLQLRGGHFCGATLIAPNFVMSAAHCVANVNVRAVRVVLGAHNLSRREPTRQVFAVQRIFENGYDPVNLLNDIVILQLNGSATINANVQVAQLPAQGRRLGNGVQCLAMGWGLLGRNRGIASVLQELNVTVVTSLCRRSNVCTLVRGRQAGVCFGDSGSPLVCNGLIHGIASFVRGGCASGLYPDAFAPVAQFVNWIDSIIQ
- ASSAY NOTES: Human Neutrophil Elastase Assay
- Assay type: biochemical
- CONDITION: substrate MeOSuc-Ala-Ala-Pro-Val-AMC 250 μM, pH 7.5, room temperature
OBSERVED PROPERTY: IC50 (nM)
One number for each entry, in nM.

{"MOLECULE": "C[S+]([O-])c1cc(C#N)ccc1C1NC(=O)N(c2cccc(C(F)(F)F)c2)C2=C1C(=O)CCC2 (single isomer, unassigned) [Example 1.2]", "IC50 (nM)": 4.2}
{"MOLECULE": "CS(=O)(=O)c1cc(C#N)ccc1C1C2=C(CCCC2=O)N(c2cccc(C(F)(F)F)c2)C(=O)N1CC1COC1 (single isomer, unassigned) [Example 5A]", "IC50 (nM)": 1}

Value sought for every listed molecule: IC50.
1. CN1C(=O)N(c2cccc(C(F)(F)F)c2)C2=C(C(=O)CCC2)C1c1ccc(C#N)cc1[S+](C)[O-] (single isomer, unassigned) [Example 2.2B]
2. CN1C(=O)N(c2cccc(C(F)(F)F)c2)C2=C(C(=O)CCC2)C1c1ccc(C#N)cc1CO (stereo not drawn) [Example 7]

Key:
[100, 1]

----------
- ASSAY NOTES: Drug transport across human Caco-2 cells
- Type: in vitro ADME
- CONDITION: basal-to-apical, pH 7.2, 37° C., read-out: PEBA
- Experimental: Assay for Determination of Drug Transport Across Human Caco-2 Cells The assay provides information on the potential of a compound to pass the cell membrane, on the extent of oral absorption as well as on whether the compound is actively transported by uptake and/or efflux transporters. […] Apparent permeability coefficients (PE) of the compounds across the Caco-2 monolayers are measured (pH 7.2, 37° C.) in apical-to-basal (AB) (absorptive) and basal-to-apical (BA) (secretory) transport direction. […]
Output Fulfilled for records whose Papp B→A at 10 µM is lower than 90 ×10⁻⁶ cm/s, Not fulfilled for records at or above 90 ×10⁻⁶ cm/s.

# example entries with known answers
{"COMPOUND": "CN1C(=O)N(c2cccc(C(F)(F)F)c2)C2=C(C(=O)CCC2)C1c1ccc(C#N)cc1[S+](C)[O-] (single isomer, unassigned) [Example 2.1A]", "CLASS LABEL": "Fulfilled"}
{"COMPOUND": "CN1C(=O)N(c2cccc(C(F)(F)F)c2)C2=C(C(=O)CCC2)C1c1ccc(C#N)cc1S(=O)(=O)CCCO (stereo not drawn) [Example 4.4]", "CLASS LABEL": "Not fulfilled"}
{"COMPOUND": "CS(=O)(=O)c1cc(C#N)ccc1C1C2=C(CCCC2=O)N(c2cccc(C(F)(F)F)c2)C(=O)N1CCO (stereo not drawn) [Example 6]", "CLASS LABEL": "Fulfilled"}
{"COMPOUND": "CN1C(=O)N(c2cccc(C(F)(F)F)c2)C2=C(C(=O)CCC2)[C@H]1c1ccc(C#N)cc1[S+](C)[O-] (single isomer, unassigned) [Example 2.2A]", "CLASS LABEL": "Not fulfilled"}

Shifting focus to the compound that follows.
Exercise: Bench note: check whether CN1C(=O)N(c2cccc(C(F)(F)F)c2)C2=C(C(=O)CCC2)C1c1ccc(C#N)cc1S(=O)(=O)CCO (stereo not drawn) [Example 4.3] shows Papp B→A at 10 µM below 90 ×10⁻⁶ cm/s
Key: Not fulfilled

----------
- EXPERIMENTAL TARGET: cytochrome P450 2C9 (Homo sapiens, UniProt P11712)
- Sequence (P11712 whole entry): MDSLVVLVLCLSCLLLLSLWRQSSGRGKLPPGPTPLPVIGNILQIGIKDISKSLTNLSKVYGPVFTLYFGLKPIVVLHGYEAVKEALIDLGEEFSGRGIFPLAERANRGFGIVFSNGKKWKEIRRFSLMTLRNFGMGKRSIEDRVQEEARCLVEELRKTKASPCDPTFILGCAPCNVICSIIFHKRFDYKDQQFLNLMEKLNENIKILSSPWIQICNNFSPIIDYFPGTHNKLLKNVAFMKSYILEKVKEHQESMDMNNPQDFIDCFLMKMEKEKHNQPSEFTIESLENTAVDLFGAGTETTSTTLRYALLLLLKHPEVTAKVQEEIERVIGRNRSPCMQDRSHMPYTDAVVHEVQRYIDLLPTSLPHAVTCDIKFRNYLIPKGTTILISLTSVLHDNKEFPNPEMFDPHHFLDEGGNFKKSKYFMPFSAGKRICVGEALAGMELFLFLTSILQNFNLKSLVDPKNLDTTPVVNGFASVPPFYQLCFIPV
pIC50: −log10 of the molar value.
OBSERVED PROPERTY: pIC50

Recorded result, CN1C(=O)N(c2cccc(C(F)(F)F)c2)C2=C(C(=O)CCC2)[C@H]1c1ccc(C#N)cc1[S+](C)[O-] (single isomer, unassigned) , pIC50: < 4.30

----------
Hi there, I'd appreciate the recorded Papp A→B at 10 µM for every entry that follows.
- ASSAY NOTES: Drug transport across human Caco-2 cells
- Assay type: in vitro ADME
- CONDITION: apical-to-basal, pH 7.2, 37° C., read-out: PEAB
Numbers only, in ×10⁻⁶ cm/s.

Answered examples (3):
{"MOLECULE": "CN1C(=O)N(c2cccc(C(F)(F)F)c2)C2=C(C(=O)CCC2)C1c1ccc(C#N)cc1S(=O)(=O)CCCO (stereo not drawn)", "Papp A→B at 10 µM (×10⁻⁶ cm/s)": 8.4}
{"MOLECULE": "CS(=O)(=O)c1cc(C#N)ccc1C1C2=C(CCCC2=O)N(c2cccc(C(F)(F)F)c2)C(=O)N1CCO (stereo not drawn)", "Papp A→B at 10 µM (×10⁻⁶ cm/s)": 3.9}
{"MOLECULE": "CN1C(=O)N(c2cccc(C(F)(F)F)c2)C2=C(C(=O)CCC2)C1c1ccc(C#N)cc1S(=O)(=O)CCO (stereo not drawn)", "Papp A→B at 10 µM (×10⁻⁶ cm/s)": 10}

Value sought for every listed molecule: Papp A→B at 10 µM.
1. CS(=O)(=O)c1cc(C#N)ccc1C1C2=C(CCCC2=O)N(c2cccc(C(F)(F)F)c2)C(=O)N1CC1COC1 (single isomer, unassigned)
2. CN1C(=O)N(c2cccc(C(F)(F)F)c2)C2=C(C(=O)CCC2)[C@H]1c1ccc(C#N)cc1[S+](C)[O-] (single isomer, unassigned)
3. CN1C(=O)N(c2cccc(C(F)(F)F)c2)C2=C(C(=O)CCC2)C1c1ccc(C#N)cc1[S+](C)[O-] (single isomer, unassigned)

Key:
12
19
4.1
